Where these numbers come from: the supplement of paper PMC6555819

Recorded PBM binding z-score by entry
Test system: VDR homodimer (NR concentration 270 nM)
Experiment: PBM binding z-score (relative to random genomic background probes); higher = stronger binding; sequences stand for … in GC…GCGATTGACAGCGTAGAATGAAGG

PBM binding z-score lookup needed for CCGACTGGGGCTAAGGTTACCATACTCAGTACGA , thanks.
0.443

Tell me the measured PBM binding z-score of CCTCGGAGGACAGAACGTCAGAGCTGTCCGCTTT , please.
-0.816

Entry under review: CGAACTAGGTCATCCAGGACACTGAATACATTGA . Reported PBM binding z-score?
3.09

----------
Tested on: THRa homodimer (NR concentration 90 nM)
Experiment: PBM binding z-score (relative to random genomic background probes); higher = stronger binding; sequences stand for … in GC…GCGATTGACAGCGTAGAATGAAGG
Property label: PBM binding z-score
Form: value (number only, do not type unit).

Requested read-out: PBM binding z-score. Entry: TTGCCTAGGTCAGATCGGGCCAGTATACGCTATA
-0.108

Would you mind telling me what PBM binding z-score value was observed for ATCGAAACGTCGAGGTGAGTATAGAGAAAGGGAA ?
-0.0731

Sample GCTTACGGGTTAAAGGTTATAGCATGAATAGAAT — what was its PBM binding z-score?
0.253

Return reported PBM binding z-score; argument: CTAACTAGGTCATTGACAGGACAGTGAATAGTAA
0.816

I have this sequence here, AGTCAAAGTTCAGGACGATGTAACGTAAAGCACG , and I need its recorded PBM binding z-score.
0.0967

Returns the measured PBM binding z-score for the input sequence. Input: CGTCCAAGGTCAAAGTTCAGTGAAGAGATGACGG
1.92
